# assay-system: benzodiazepine-binding site of the GABA-A receptor
# experimental-details: Displacement of tritiated flunitrazepam from brain membranes
# settings: cerebellum (ce; BZ1 subtype); read-out: IC50 Flu / BZ receptor
readout-name: IC50 (nM)
Give bare numbers, in nM.

q: Report IC50 for O=C1CCC(C2c3ccccc3CCN2C(=O)OCc2ccccc2)O1 (racemic) [Compound 54] tested on benzodiazepine-binding site of the GABA-A receptor.
a: 40

====

Kindly state pIC50 for each of the entries shown.
# assay-system: picrotoxin-binding site of the GABA-A receptor
# experimental-details: Displacement of 35S-TBPS from brain membranes
# Parameters: species or system rats
# settings: tissue not stated
pIC50: −log10 of the molar value.

| compound | assay-system | pIC50 |
| --- | --- | --- |
| O=C1CC[C@H]([C@H]2c3ccccc3CCN2S(=O)(=O)c2ccccc2)O1 (racemic) | picrotoxin-binding site of the GABA-A receptor | ~4.00 |

Please examine the following record next.
q: Report pIC50 for COc1ccc(S(=O)(=O)N2CCc3ccccc3C2C2CCC(=O)O2)cc1 (mixture of isomers) tested on picrotoxin-binding site of the GABA-A receptor.
a: ~4.00

====

# assay-system: benzodiazepine-binding site of the GABA-A receptor
# experimental-details: Displacement of tritiated flunitrazepam from brain membranes
# settings: cortex (co = whole brain without cerebellum; BZ2 subtype); read-out: IC50 Flu / BZ receptor
readout-name: IC50
Give the value; after it, write the unit.

q: Report IC50 for O=C1CCC(C2c3ccccc3CCN2C(=O)OCc2ccccc2)O1 (racemic) [Compound 54] tested on benzodiazepine-binding site of the GABA-A receptor.
a: 150 nM

====

# Tested on: picrotoxin-binding site of the GABA-A receptor
# experimental-details: Displacement of 35S-TBPS from brain membranes
# Parameters: species or system rats
# settings: 10 μM
Please note: Inhibition of the tritiated ligands % TBPS exactly at 20% is Condition not met. Only values below 20% get Condition met.

Field: example entries. Status: answers known.
| molecule | class-name |
| --- | --- |
| COc1cc2c(cc1OC)[C@H]([C@@H]1CCC(=O)O1)N(C(=O)OCc1ccccc1)CC2 (racemic) [Compound 49] | Condition met |
| O=C1C=CC(C2c3ccccc3CCN2C(=O)OCc2ccccc2)O1 (racemic) [Compound 50] | Condition not met |
| O=C1C=CC(C2c3cc4c(cc3CCN2C(=O)OCc2ccccc2)OCO4)O1 (racemic) [Compound 44] | Condition not met |

q: Identify whether the molecule CC1=C[C@@H]([C@H]2c3cc4c(cc3CCN2C)OCO4)OC1=O (racemic) [Compound 43] records Inhibition of the tritiated ligands % TBPS below 20%.
a: Condition met

q: Try the molecule O=C1C=CC(C2c3ccccc3CCN2C(=O)Oc2ccccc2)O1 (racemic) [Compound 58]
a: Condition met

====

# assay-system: picrotoxin-binding site of the GABA-A receptor
# Construct: other: cortex
# experimental-details: Displacement of 35S-TBPS from brain membranes
# Parameters: species or system rats
# settings: cortex
pIC50: −log10 of the molar value.
readout-name: pIC50

q: Report pIC50 for O=C1C=C[C@@H]([C@H]2c3ccccc3CCN2C(=S)Oc2ccccc2)O1 (racemic) [Compound 64] tested on picrotoxin-binding site of the GABA-A receptor.
a: < 4.00

====

# assay-system: benzodiazepine-binding site of the GABA-A receptor (Rattus norvegicus, UniProt P18508+P62813)
# Construct: IC50 Flu / BZ receptor; other: cerebellum (ce); other: cerebellum (ce; BZ1 subtype); other: 10 μM; cerebellum; other: 100 μM; other: 0.5 μM
# Sequence (P62813 28-455): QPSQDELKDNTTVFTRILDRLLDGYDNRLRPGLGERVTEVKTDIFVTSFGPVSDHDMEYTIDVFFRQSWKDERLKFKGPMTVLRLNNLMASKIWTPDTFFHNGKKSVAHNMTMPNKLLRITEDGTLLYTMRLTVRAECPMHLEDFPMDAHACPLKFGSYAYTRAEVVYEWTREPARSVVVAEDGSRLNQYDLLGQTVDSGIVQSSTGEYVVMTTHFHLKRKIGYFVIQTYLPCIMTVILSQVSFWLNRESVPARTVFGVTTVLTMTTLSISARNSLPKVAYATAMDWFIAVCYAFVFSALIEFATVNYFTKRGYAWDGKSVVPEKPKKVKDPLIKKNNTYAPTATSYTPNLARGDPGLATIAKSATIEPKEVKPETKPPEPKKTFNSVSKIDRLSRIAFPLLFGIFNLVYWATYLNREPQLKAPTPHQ
# Sequence (P18508 39-466): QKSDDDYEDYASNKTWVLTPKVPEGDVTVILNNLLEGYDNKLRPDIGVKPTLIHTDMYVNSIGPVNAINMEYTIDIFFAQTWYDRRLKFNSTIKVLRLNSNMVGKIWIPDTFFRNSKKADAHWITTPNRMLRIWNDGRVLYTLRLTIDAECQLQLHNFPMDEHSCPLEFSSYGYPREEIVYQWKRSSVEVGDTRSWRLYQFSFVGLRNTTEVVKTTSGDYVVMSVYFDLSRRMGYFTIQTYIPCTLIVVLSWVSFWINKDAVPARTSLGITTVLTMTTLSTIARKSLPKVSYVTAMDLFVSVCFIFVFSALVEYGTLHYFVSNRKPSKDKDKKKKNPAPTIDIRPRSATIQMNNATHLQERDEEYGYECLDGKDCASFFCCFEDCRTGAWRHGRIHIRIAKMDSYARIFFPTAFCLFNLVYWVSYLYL
# Sequence (P63138 26-474 partner): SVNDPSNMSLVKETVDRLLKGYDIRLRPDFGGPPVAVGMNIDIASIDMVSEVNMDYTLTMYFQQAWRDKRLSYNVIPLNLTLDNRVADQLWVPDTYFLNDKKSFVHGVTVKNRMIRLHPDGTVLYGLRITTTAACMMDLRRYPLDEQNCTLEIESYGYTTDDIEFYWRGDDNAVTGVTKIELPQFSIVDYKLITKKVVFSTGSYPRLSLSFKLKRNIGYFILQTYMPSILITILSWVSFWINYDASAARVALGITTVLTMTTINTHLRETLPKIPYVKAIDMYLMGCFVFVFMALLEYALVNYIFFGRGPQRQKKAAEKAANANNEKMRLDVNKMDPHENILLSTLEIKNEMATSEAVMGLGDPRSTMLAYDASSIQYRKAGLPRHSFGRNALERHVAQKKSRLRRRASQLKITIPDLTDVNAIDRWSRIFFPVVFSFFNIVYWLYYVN
# experimental-details: Displacement of tritiated flunitrazepam from brain membranes
# settings: 100 μM; tissue not stated
readout-name: Inhibition of the tritiated ligands % Flu (100 μM)
Give the value; after it, write the unit.

| compound | observed-value |
| --- | --- |
| COc1cc2c(cc1OC)C(C1C=C(C)C(=O)O1)N(C(=O)OCc1ccccc1)CC2 (racemic) [Compound 47] | 10% |
| O=C1C=CC(C2c3ccccc3CCN2C(=O)Cc2ccccc2)O1 (racemic) [Compound 55] | 95% |
| COc1ccc(S(=O)(=O)N2CCc3ccccc3C2C2CCC(=O)O2)cc1 (mixture of isomers) [Compound 72] | 0% |
| O=C1C=CC(C2c3cc4c(cc3CCN2C(=O)OCc2ccccc2)OCO4)O1 (racemic) [Compound 44] | 45% |

Please examine the following record next.
q: I have this compound here, O=C1C=CC(C2c3ccccc3CCN2C(=O)c2ccccc2)O1 (racemic) [Compound 60] , and I need its recorded Inhibition of the tritiated ligands % Flu (100 μM).
a: 90%
